Recorded EC50 by entry
Target: androgen receptor (AR-LBD) (Rattus norvegicus, UniProt P15207)
Construct: 5 μL of 2×AR-LBD/Fluoromone AL Red Complex contained in the kit; purchased Invitrogen
Experiment: Evaluation of androgen receptor affinity (PolarScreen Androgen Receptor Competitor Assay Kit, Red; fluorescence polarization)
Conditions: 22° C. for 5 hours, relative to binding rate of 1 μM DHT, read-out: AR affinity (pEC50) (converted)
Unit nM implied. Number only.

{"columns": ["Molecule", "EC50 / nM"],
 "data": [
  ["Cc1sc(N(Cc2ccccc2SC(F)F)c2ccc(C#N)cc2)nc1C(=O)NS(C)(=O)=O [Compound 79]", 15.8],
  ["Cc1sc(N(CC[Si](C)(C)C)c2ccc(C#N)cc2)nc1C(=O)NS(C)(=O)=O [Compound 476]", 200],
  ["Cc1sc(N(Cc2ccccc2)c2ccc(C#N)cc2)nc1C(=O)NS(=O)(=O)Cc1cccnc1 [Compound 397]", 63.1],
  ["Cc1sc(N(Cc2ccc(F)cc2Cl)c2ccc(C#N)cc2)nc1C(=O)NS(C)(=O)=O [Compound 106]", 79.4]
]}

In: What value of EC50 has been reported for the following molecule? Cc1oc(N(CCc2ccc(C#N)cc2)Cc2ccc(OC(F)F)cc2)nc1C(=O)NS(C)(=O)=O [Compound 553]
Out: 31.6

###

Target: androgen receptor (AR-LBD) (Rattus norvegicus)
Construct: 5 μL of 2×AR-LBD/Fluoromone AL Red Complex contained in the kit; purchased Invitrogen
Sequence (P15207 651-882 limits assumed): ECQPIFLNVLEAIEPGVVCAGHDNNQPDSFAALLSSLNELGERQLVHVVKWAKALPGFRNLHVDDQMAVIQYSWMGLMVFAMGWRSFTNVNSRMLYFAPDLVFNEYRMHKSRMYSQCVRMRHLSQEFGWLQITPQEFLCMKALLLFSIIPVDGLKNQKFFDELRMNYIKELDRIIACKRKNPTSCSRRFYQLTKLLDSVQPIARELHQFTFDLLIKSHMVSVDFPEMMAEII
Assay: Evaluation of androgen receptor affinity (PolarScreen Androgen Receptor Competitor Assay Kit, Red; fluorescence polarization)
Details: 22° C. for 5 hours, relative to binding rate of 1 μM DHT, read-out: AR affinity (pEC50) (converted)
Value Type: EC50

Examples with their reported EC50 follow.
{"columns": ["Compound", "Reported"],
 "data": [
  ["Cc1cc(C)n(CCN(Cc2ccccc2)c2nc(C(=O)NS(C)(=O)=O)c(C)s2)n1", "> 2000 nM"],
  ["COc1ccc(CCN(Cc2ccccc2)c2nc(C(=O)NS(C)(=O)=O)c(C)s2)cc1", "50.1 nM"],
  ["CS(=O)(=O)NC(=O)c1nc(N(Cc2cc3ccccc3s2)c2ccc(C#N)cc2)sc1Br", "31.6 nM"],
  ["Cc1sc(N(Cc2ccccc2)c2cccc3c2ccn3C)nc1C(=O)NS(C)(=O)=O", "> 2000 nM"],
  ["Cc1sc(N(C[C@@H]2CCCC[C@H]2O)c2ccc(C#N)cc2)nc1C(=O)NS(C)(=O)=O (racemic)", "794 nM"],
  ["Cc1ccc(CN(c2ccc(C#N)cc2)c2nc(C(=O)NS(C)(=O)=O)c(Br)s2)cc1", "39.8 nM"],
  ["Cc1sc(N(Cc2ccccc2)c2ccc(O)cc2)nc1C(=O)NS(C)(=O)=O", "> 2000 nM"],
  ["CCc1oc(N(Cc2ccc(OC(F)F)cc2)c2ccc(C#N)cc2)nc1C(=O)NS(C)(=O)=O", "39.8 nM"]
]}

Moving on to the next compound.
In: What value of EC50 has been reported for the following compound? `Cc1sc(N(CCc2ccc(Cl)cc2)Cc2ccc(OC(F)(F)F)cc2)nc1C(=O)NS(=O)(=O)C1CC1`
Out: 200 nM
